system: MV4-11; experiment: Antiproliferative activity against human MV4-11 cells after 48 hrs by CellTiter-Glo luminescent cell viability assay; type: functional, cell-based; conditions: MV4-11, 48 h
endpoint_name: EC50
Returns: string containing the numeric result and its unit.

# example entries with known answers
INSERT INTO measurements (chem_smiles, measured) VALUES
  ('Cc1ncsc1-c1ccc(CNC(=O)[C@@H]2C[C@@H](O)CN2C(=O)[C@@H](NC(=O)COCCOCCOCCNC(=O)C[C@@H]2N=C(c3ccc(Cl)cc3)c3c(sc(C)c3C)-n3c(C)nnc32)C(C)(C)C)cc1', '26.9 nM'),
  ('CC(=O)N1c2ccc(-c3ccc(C(=O)NCCOCCOCC(=O)N[C@H](C(=O)N4C[C@H](O)C[C@H]4C(=O)NCc4ccc(-c5scnc5C)cc4)C(C)(C)C)cc3)cc2[C@H](Nc2ccc(Cl)cc2)C[C@@H]1C', '575 nM');

Look at this compound and give its reported EC50. CC(=O)N1c2ccc(-c3ccc(C(=O)NCCOCCOCCOCCOCC(=O)N[C@H](C(=O)N4C[C@H](O)C[C@H]4C(=O)NCc4ccc(-c5scnc5C)cc4)C(C)(C)C)cc3)cc2[C@H](Nc2ccc(Cl)cc2)C[C@@H]1C 83.2 nM

Look at this compound and give its reported EC50. Cc1ncsc1-c1ccc(CNC(=O)[C@@H]2C[C@@H](O)CN2C(=O)[C@@H](NC(=O)COCCOCCNC(=O)C[C@@H]2N=C(c3ccc(Cl)cc3)c3c(sc(C)c3C)-n3c(C)nnc32)C(C)(C)C)cc1 178 nM

* * *

molecular target: Bromodomain-containing protein 4 (Homo sapiens, UniProt O60885); assay: Binding affinity to N-terminal His6-tagged recombinant human Brd4 BD2 expressed in Escherichia coli BL21 (DE3) assessed as compound binary complex formation by isothermal titration calorimetry-based assay
endpoint_name: Kd (nM)
Entry rule: numbers only, all in nM.

# example entries with known answers
INSERT INTO results (chem_smiles, measured) VALUES
  ('CC(=O)N1c2ccc(-c3ccc(C(=O)NCCOCCOCCOCCOCC(=O)N[C@H](C(=O)N4C[C@H](O)C[C@H]4C(=O)NCc4ccc(-c5scnc5C)cc4)C(C)(C)C)cc3)cc2[C@H](Nc2ccc(Cl)cc2)C[C@@H]1C', 8),
  ('Cc1ncsc1-c1ccc(CNC(=O)[C@@H]2C[C@@H](O)CN2C(=O)[C@@H](NC(=O)COCCOCCOCCOCCNC(=O)C[C@@H]2N=C(c3ccc(Cl)cc3)c3c(sc(C)c3C)-n3c(C)nnc32)C(C)(C)C)cc1', 27),
  ('CC(=O)N1c2ccc(-c3ccc(C(=O)NCCOCCOCC(=O)N[C@H](C(=O)N4C[C@H](O)C[C@H]4C(=O)NCc4ccc(-c5scnc5C)cc4)C(C)(C)C)cc3)cc2[C@H](Nc2ccc(Cl)cc2)C[C@@H]1C', 3);

Now consider a different compound.
Query Kd on Bromodomain-containing protein 4 (Homo sapiens, UniProt O60885) for Cc1ncsc1-c1ccc(CNC(=O)[C@@H]2C[C@@H](O)CN2C(=O)[C@@H](NC(=O)COCCOCCNC(=O)C[C@@H]2N=C(c3ccc(Cl)cc3)c3c(sc(C)c3C)-n3c(C)nnc32)C(C)(C)C)cc1 17

* * *

Below, each of the compounds is paired with its reported Kd value.
biological target: von Hippel-Lindau disease tumor suppressor/Bromodomain-containing protein 4/Elongin-B/Elongin-C (Homo sapiens, UniProt O60885+P40337+Q15369+Q15370); assay: Induction of interaction of N-terminal His6-tagged recombinant human VHL (54 to 213 residues)/elongin C (17 to 112 residues)/elongin B (1 to 104 residues) co-expressed in Escherichia coli BL21 (DE3) with recombinant human Brd4 BD2 assessed as VCB/BRD4/compound ternary complex formation by isothermal titration calorimetry-based assay
Returns: string containing the numeric result and its unit.

# example entries with known answers
INSERT INTO results (chem_smiles, measured) VALUES
  ('CC(=O)N1c2ccc(-c3ccc(C(=O)NCCOCCOCC(=O)N[C@H](C(=O)N4C[C@H](O)C[C@H]4C(=O)NCc4ccc(-c5scnc5C)cc4)C(C)(C)C)cc3)cc2[C@H](Nc2ccc(Cl)cc2)C[C@@H]1C', '781 nM'),
  ('Cc1ncsc1-c1ccc(CNC(=O)[C@@H]2C[C@@H](O)CN2C(=O)[C@@H](NC(=O)COCCOCCNC(=O)C[C@@H]2N=C(c3ccc(Cl)cc3)c3c(sc(C)c3C)-n3c(C)nnc32)C(C)(C)C)cc1', '26 nM'),
  ('Cc1ncsc1-c1ccc(CNC(=O)[C@@H]2C[C@@H](O)CN2C(=O)[C@@H](NC(=O)COCCOCCOCCOCCNC(=O)C[C@@H]2N=C(c3ccc(Cl)cc3)c3c(sc(C)c3C)-n3c(C)nnc32)C(C)(C)C)cc1', '15 nM');

Now consider a different compound.
Look at this compound and give its reported Kd. CC(=O)N1c2ccc(-c3ccc(C(=O)NCCOCCOCCOCCOCC(=O)N[C@H](C(=O)N4C[C@H](O)C[C@H]4C(=O)NCc4ccc(-c5scnc5C)cc4)C(C)(C)C)cc3)cc2[C@H](Nc2ccc(Cl)cc2)C[C@@H]1C 183 nM

* * *

target: Von Hippel-Lindau disease tumor suppressor/Elongin B/Elongin C (Homo sapiens); assay: Binding affinity to N-terminal His6-tagged recombinant human VHL (54 to 213 residues)/elongin C (17 to 112 residues)/elongin B (1 to 104 residues) expressed in Escherichia coli BL21 (DE3) assessed as compound binary complex formation by isothermal titration calorimetry-based assay
endpoint_name: pKd
// pKd here means minus log10 of the molar concentration (mol/L)

INSERT INTO measurements (chem_smiles, endpoint_name, measured) VALUES
  ('CC(=O)N1c2ccc(-c3ccc(C(=O)NCCOCCOCC(=O)N[C@H](C(=O)N4C[C@H](O)C[C@H]4C(=O)NCc4ccc(-c5scnc5C)cc4)C(C)(C)C)cc3)cc2[C@H](Nc2ccc(Cl)cc2)C[C@@H]1C', 'pKd', 6.94);

Now consider a different compound.
Query pKd on Von Hippel-Lindau disease tumor suppressor/Elongin B/Elongin C (Homo sapiens) for CC(=O)N1c2ccc(-c3ccc(C(=O)NCCOCCOCCOCCOCC(=O)N[C@H](C(=O)N4C[C@H](O)C[C@H]4C(=O)NCc4ccc(-c5scnc5C)cc4)C(C)(C)C)cc3)cc2[C@H](Nc2ccc(Cl)cc2)C[C@@H]1C 6.96

* * *

target: von Hippel-Lindau disease tumor suppressor/Bromodomain-containing protein 2/Elongin-B/Elongin-C (Homo sapiens, UniProt P25440+P40337+Q15369+Q15370); assay: Induction of interaction of N-terminal His6-tagged recombinant human VHL (54 to 213 residues)/elongin C (17 to 112 residues)/elongin B (1 to 104 residues) co-expressed in Escherichia coli BL21 (DE3) with recombinant human Brd2 BD1 assessed as VCB/BRD2/compound ternary complex formation by isothermal titration calorimetry-based assay
endpoint_name: pKd
// pKd here means minus log10 of the molar concentration (mol/L)

Look at this compound and give its reported pKd. CC(=O)N1c2ccc(-c3ccc(C(=O)NCCOCCOCCOCCOCC(=O)N[C@H](C(=O)N4C[C@H](O)C[C@H]4C(=O)NCc4ccc(-c5scnc5C)cc4)C(C)(C)C)cc3)cc2[C@H](Nc2ccc(Cl)cc2)C[C@@H]1C 6.48
